# credit: paper PMC7453301

# Assayed target: SDH derived from Botrytis cinerea (Botrytis cinerea, UniProt A0A384J5E4+D2IH01+D2IH03)
# Sequence (A0A384J5E4 30-300): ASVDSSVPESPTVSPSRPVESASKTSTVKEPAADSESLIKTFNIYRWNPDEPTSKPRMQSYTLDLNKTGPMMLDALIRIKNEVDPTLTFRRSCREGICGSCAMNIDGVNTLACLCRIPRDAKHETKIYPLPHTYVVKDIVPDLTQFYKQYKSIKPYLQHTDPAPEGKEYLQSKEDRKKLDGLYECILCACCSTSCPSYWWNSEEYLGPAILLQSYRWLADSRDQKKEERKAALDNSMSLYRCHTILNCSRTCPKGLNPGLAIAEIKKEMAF
# Sequence (D2IH03 46-189): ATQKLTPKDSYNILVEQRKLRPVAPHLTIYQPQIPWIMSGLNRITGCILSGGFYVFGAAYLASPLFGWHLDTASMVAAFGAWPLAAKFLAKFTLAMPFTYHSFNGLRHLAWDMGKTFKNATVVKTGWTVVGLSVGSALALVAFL
# Sequence (D2IH01 64-192): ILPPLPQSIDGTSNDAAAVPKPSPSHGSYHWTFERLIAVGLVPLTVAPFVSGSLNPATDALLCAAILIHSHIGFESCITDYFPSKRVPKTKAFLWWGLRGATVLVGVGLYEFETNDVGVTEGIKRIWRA
# Sequence (A0A384K456 34-647 partner): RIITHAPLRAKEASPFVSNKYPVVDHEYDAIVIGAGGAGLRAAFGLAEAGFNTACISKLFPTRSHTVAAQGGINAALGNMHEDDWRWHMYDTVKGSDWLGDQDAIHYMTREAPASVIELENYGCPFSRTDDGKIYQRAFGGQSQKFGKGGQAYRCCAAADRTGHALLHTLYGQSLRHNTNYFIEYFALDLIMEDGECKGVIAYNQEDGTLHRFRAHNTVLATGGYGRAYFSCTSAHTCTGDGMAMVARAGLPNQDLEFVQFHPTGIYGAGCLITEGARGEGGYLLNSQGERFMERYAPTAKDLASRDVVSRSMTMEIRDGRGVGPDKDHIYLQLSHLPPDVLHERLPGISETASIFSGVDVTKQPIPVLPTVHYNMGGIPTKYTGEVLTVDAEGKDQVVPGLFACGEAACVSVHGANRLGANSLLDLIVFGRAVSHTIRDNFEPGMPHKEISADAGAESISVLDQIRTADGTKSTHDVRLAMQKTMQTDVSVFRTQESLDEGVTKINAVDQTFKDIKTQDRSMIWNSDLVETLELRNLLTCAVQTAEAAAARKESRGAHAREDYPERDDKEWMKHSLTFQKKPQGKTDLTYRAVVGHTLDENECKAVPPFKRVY
# Method notes: SDH inhibition, DCIP method
Quantity name: IC50 (nM)

{"Substance smiles": "O=C(Nc1ccccc1-c1ccc(F)c(F)c1)c1nccnc1C(F)(F)F", "Unit spec": "nM", "Reported result": 4.1}

====

# Assayed target: SDH derived from Rhizoctonia solani (Rhizoctonia solani, UniProt A0A074S2N8+A0A0B7FBK7+A0A0B7FK09)
# Sequence (A0A0B7FBK7 28-278): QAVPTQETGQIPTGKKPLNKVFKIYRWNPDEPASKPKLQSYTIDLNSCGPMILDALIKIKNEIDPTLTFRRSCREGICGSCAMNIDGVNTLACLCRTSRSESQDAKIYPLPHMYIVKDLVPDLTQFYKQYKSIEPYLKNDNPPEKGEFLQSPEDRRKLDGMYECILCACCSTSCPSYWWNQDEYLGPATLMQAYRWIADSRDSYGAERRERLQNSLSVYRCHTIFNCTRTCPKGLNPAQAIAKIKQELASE
# Sequence (A0A074S2N8 37-180): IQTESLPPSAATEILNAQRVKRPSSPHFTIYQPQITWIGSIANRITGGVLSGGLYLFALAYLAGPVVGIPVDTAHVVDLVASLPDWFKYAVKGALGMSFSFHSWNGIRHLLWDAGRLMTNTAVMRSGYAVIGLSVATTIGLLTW
# Sequence (A0A0B7FK09 30-176): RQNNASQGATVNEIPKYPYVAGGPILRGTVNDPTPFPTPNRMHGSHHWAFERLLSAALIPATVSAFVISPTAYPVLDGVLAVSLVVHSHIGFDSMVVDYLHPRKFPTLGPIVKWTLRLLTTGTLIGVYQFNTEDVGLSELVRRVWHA
# Sequence (A0A0B7F7I9 28-643 partner): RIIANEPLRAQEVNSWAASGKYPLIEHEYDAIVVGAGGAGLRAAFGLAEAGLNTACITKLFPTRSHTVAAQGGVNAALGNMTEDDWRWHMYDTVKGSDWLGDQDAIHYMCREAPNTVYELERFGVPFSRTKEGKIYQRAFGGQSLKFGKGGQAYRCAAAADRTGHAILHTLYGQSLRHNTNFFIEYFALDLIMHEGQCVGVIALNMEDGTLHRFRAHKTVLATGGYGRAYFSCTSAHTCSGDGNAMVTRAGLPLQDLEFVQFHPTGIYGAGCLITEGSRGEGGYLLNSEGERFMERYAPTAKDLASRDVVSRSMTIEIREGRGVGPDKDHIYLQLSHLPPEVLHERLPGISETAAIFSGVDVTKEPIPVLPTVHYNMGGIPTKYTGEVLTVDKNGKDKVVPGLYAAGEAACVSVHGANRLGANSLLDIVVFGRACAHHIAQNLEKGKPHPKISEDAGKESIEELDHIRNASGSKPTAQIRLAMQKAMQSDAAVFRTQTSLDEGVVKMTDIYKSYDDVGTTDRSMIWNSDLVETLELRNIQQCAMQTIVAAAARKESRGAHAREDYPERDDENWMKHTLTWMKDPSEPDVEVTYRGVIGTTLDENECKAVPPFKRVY
# Method notes: SDH inhibition, DCIP method
# Condition set: read-out: SDH IC50

{"Substance smiles": "O=C(Nc1ccccc1-c1ccc(F)c(F)c1)c1nccnc1C(F)(F)F", "IC50 [nM]": 5.9}
